tested on: T. cruzi; experiment: T. cruzi inhibition assay (beta-galactosidase T. cruzi co-cultured with NIH/3T3 host cells); type: cell-based; conditions: Trypanosoma cruzi, NIH3T3; Table 2
Could you mark each record T if its IC50 falls strictly under 0.02 µM, and F if it equals or exceeds it?

> print(dat)
                             smiles.notation  assigned.class
 1  C[C@@H]1CN([C@H](C)CO)C(=O)c2cccc(NC(=O)c3ccncc3)c2O[C@@H]1CN(C)Cc1ccc(Oc2ccccc2)cc1               F
 2  C[C@@H]1CN([C@@H](C)CO)C(=O)c2cccc(NC(=O)c3ccncc3)c2O[C@H]1CN(C)CC1CCCCC1               F
 3  C[C@@H]1CN([C@@H](C)CO)C(=O)c2cccc(NC(=O)c3ccncc3)c2O[C@H]1CN(C)C               F
 4  C[C@@H]1CN([C@@H](C)CO)C(=O)c2cccc(NC(=O)c3ccncc3)c2O[C@H]1CN(C)Cc1ccc2c(c1)OCO2               T
 5  C[C@H](CO)N1C[C@H](C)[C@@H](CN(C)Cc2ccc(Oc3ccccc3)cc2)Oc2c(NC(=O)c3ccncc3)cccc2C1=O               T
 6  C[C@@H]1CN([C@@H](C)CO)C(=O)c2cccc(NC(=O)c3ccncc3)c2O[C@H]1CN(C)Cc1ccc(Oc2ccccc2)cc1               T
 7  C[C@@H]1CN([C@H](C)CO)C(=O)c2cccc(NC(=O)c3ccncc3)c2O[C@H]1CN(C)Cc1ccccc1               T
 8  C[C@@H]1CN([C@@H](C)CO)C(=O)c2cccc(NC(=O)c3ccncc3)c2O[C@H]1CN(C)Cc1ccc(Cl)cc1               T
 9  C[C@@H]1CN([C@@H](C)CO)C(=O)c2cc(-c3cncnc3)cnc2O[C@H]1CN(C)Cc1ccc(Oc2ccccc2)cc1               F
10  C[C@@H]1CN([C@@H](C)CO)C(=O)c2cc(Br)cnc2O[C@H]1CN(C)Cc1ccc2c(c1)OCO2               F
11  C[C@@H]1CN([C@H](C)CO)C(=O)c2cccc(NC(=O)c3ccncc3)c2O[C@H]1CN(C)Cc1ccc(Oc2ccccc2)cc1               T
